- Test system: male hamster auricular skin tissue sections containing sebaceous glands
- test-description: Sebum production inhibitory effect on hamster auricular skin tissue sections (radiolabeled acetate incorporation, method of Hall et al.)
- Assay type: cell-based
- study-conditions: Concentration of compound in the medium 0.01%; cultured 3 hours in Krebs-Ringer phosphate buffer; vs left auricula control
Entries and their Sebum production inhibition (%)
measured-attribute: Sebum production inhibition (%)

[[record]]
compound = "CC(=O)N[C@H]1[C@H](O[C@H]2[C@H](O)[C@@H](O)[C@H](O)O[C@@H]2C(=O)O)O[C@H](CO)[C@@H](O)[C@@H]1O[C@@H]1OC(C(=O)O)=C[C@H](O)[C@H]1O [compound 7]"
measured_attribute = "Sebum production inhibition (%)"
result = 14.2

[[record]]
compound = "CC(=O)N[C@@H]1[C@@H](O[C@@H]2O[C@H](C(=O)O)[C@@H](O[C@@H]3O[C@H](CO)[C@@H](O)[C@H](O[C@@H]4O[C@H](C(=O)O)[C@@H](O[C@@H]5O[C@H](CO)[C@@H](O)[C@H](O[C@@H]6OC(C(=O)O)=C[C@H](O)[C@H]6O)[C@H]5NC(C)=O)[C@H](O)[C@H]4O)[C@H]3NC(C)=O)[C@H](O)[C@H]2O)[C@H](O)[C@@H](CO)O[C@H]1O [compound 2]"
measured_attribute = "Sebum production inhibition (%)"
result = 28.6

[[record]]
compound = "CC(=O)N[C@H]1[C@H](O[C@H]2[C@H](O)[C@@H](O)[C@H](O)O[C@@H]2C(=O)O)O[C@H](CO)[C@@H](O)[C@@H]1O[C@@H]1O[C@H](C(=O)O)[C@@H](O[C@@H]2O[C@H](CO)[C@@H](O)[C@H](O[C@@H]3OC(C(=O)O)=C[C@H](O)[C@H]3O)[C@H]2NC(C)=O)[C@H](O)[C@H]1O [compound 8]"
measured_attribute = "Sebum production inhibition (%)"
result = 30.7

[[record]]
compound = "CC(=O)N[C@H]1[C@H](O[C@H]2[C@H](O)[C@@H](O)[C@H](O[C@@H]([C@H](O)[C@H](O)CO)[C@H](CO)NC(C)=O)O[C@@H]2C(=O)O)O[C@H](CO)[C@@H](O)[C@@H]1O[C@@H]1O[C@H](C(=O)O)[C@@H](O[C@@H]2O[C@H](CO)[C@@H](O)[C@H](O[C@@H]3OC(C(=O)O)=C[C@H](O)[C@H]3O)[C@H]2NC(C)=O)[C@H](O)[C@H]1O [compound 6]"
measured_attribute = "Sebum production inhibition (%)"
result = 30.8

[[record]]
compound = "CC(=O)N[C@H]1[C@H](O[C@@H]([C@H](O)[C@@H](O)CO)[C@H](O)C(=O)O)O[C@H](CO)[C@@H](O)[C@@H]1O[C@@H]1OC(C(=O)O)=C[C@H](O)[C@H]1O [compound 9]"
measured_attribute = "Sebum production inhibition (%)"
result = 13.9

[[record]]
compound = "CC(=O)N[C@@H]1[C@@H](O[C@@H]2O[C@H](C(=O)O)[C@@H](O[C@@H]3O[C@H](CO)[C@@H](O)[C@H](O[C@@H]4OC(C(=O)O)=C[C@H](O)[C@H]4O)[C@H]3NC(C)=O)[C@H](O)[C@H]2O)[C@H](O)[C@@H](CO)O[C@H]1O [compound 1]"
measured_attribute = "Sebum production inhibition (%)"
result = 15.7

[[record]]
compound = "CC(=O)N[C@@H]1[C@@H](O[C@@H]2O[C@H](C(=O)O)[C@@H](O[C@@H]3O[C@H](CO)[C@@H](O)[C@H](O[C@@H]4O[C@H](C(=O)O)[C@@H](O[C@@H]5O[C@H](CO)[C@@H](O)[C@H](O[C@@H]6O[C@H](C(=O)O)[C@@H](O[C@@H]7O[C@H](CO)[C@@H](O)[C@H](O[C@@H]8OC(C(=O)O)=C[C@H](O)[C@H]8O)[C@H]7NC(C)=O)[C@H](O)[C@H]6O)[C@H]5NC(C)=O)[C@H](O)[C@H]4O)[C@H]3NC(C)=O)[C@H](O)[C@H]2O)[C@H](O)[C@@H](CO)O[C@H]1O [compound 3]"
measured_attribute = "Sebum production inhibition (%)"
result = 48.5

[[record]]
compound = "CC(=O)N[C@H]1[C@H](O[C@@H]([C@H](O)[C@@H](O)CO)[C@H](O)C(=O)O)O[C@H](CO)[C@@H](O)[C@@H]1O[C@@H]1O[C@H](C(=O)O)[C@@H](O[C@@H]2O[C@H](CO)[C@@H](O)[C@H](O[C@@H]3OC(C(=O)O)=C[C@H](O)[C@H]3O)[C@H]2NC(C)=O)[C@H](O)[C@H]1O [compound 10]"
measured_attribute = "Sebum production inhibition (%)"
result = 39.8


----------
- Test system: male hamster auricular skin tissue sections containing sebaceous glands
- test-description: Sebum production inhibitory effect on hamster auricular skin tissue sections (radiolabeled acetate incorporation, method of Hall et al.)
- Format: cell-based
- study-conditions: Concentration of compound in the medium 0.01%; cultured 3 hours in Krebs-Ringer phosphate buffer; vs left auricula control
measured-attribute: Sebum production inhibition (%)

[[record]]
molecule = "CC(=O)N[C@H]1[C@H](O[C@H]2[C@H](O)[C@@H](O)[C@H](O[C@@H]([C@H](O)[C@H](O)CO)[C@H](CO)NC(C)=O)O[C@@H]2C(=O)O)O[C@H](CO)[C@@H](O)[C@@H]1O[C@@H]1OC(C(=O)O)=C[C@H](O)[C@H]1O [compound 5]"
target_entity = "male hamster auricular skin tissue sections containing sebaceous glands"
measured_attribute = "Sebum production inhibition (%)"
result = 16.2

